Experiment: Inhibition of Leishmania mexicana squalene synthase
PROPERTY LABEL: pKi
In textbook form, pKi equals minus log to base ten of the concentration in mol/L.

Request: Reported pKi for OC1(c2ccc(-c3ccccc3)cc2)CN2CCC1CC2 (stereo unspecified) : what is it?
Response: 7.92

---

Tested on: Leishmania amazonensis
Assay: Inhibition of sterol biosynthesis in Leishmania mexicana amazonensis promastigotes assessed as reduction in endogenous 5-dehydro episterol level at 1 uM after 96 hrs by gas-liquid chromatography
Type: functional
Parameters: scale not given: the % may be the effect or the level left
Listed next: entries and their corresponding Activity.
The response must be a number in % with no trailing unit.

Some molecules with recorded Activity:
{"columns": ["MOLECULE", "MEASUREMENT TARGET", "UNIT LABEL", "Activity"],
 "data": [
  ["CC(C)(C)[Si](C)(C)Oc1ccc(C2=CN3CCC2CC3)cc1", "Leishmania amazonensis", "%", 54.7],
  ["OC[C@H]1CC2CCN1C[C@@H]2C#Cc1ccc(-c2ccccc2)cc1 (stereo not given in full)", "Leishmania amazonensis", "%", 49.3],
  ["CC(C)OC(=O)c1ccc(C2=CN3CCC2CC3)cc1", "Leishmania amazonensis", "%", 42.8]
]}

Request: Reported Activity for OC1(c2ccc(-c3ccccc3)cc2)CN2CCC1CC2 (stereo not given) : what is it?
Response: 65.7

Request: Reported Activity for CCCCCCOc1ccc(C#CC2(O)CN3CCC2CC3)cc1 (stereo not given) : what is it?
Response: 65

---

Tested on: Leishmania amazonensis
Test: Inhibition of sterol biosynthesis in Leishmania mexicana amazonensis promastigotes assessed as reduction in endogenous 5-dehydro episterol level at 1 uM after 96 hrs by gas-liquid chromatography
Format: functional
Parameters: scale not given: the % may be the effect or the level left
Listed next: entries and their corresponding Activity.
The response must be a number in % with no trailing unit.

Some compounds with recorded Activity:
{"columns": ["COMPOUND", "MEASUREMENT TARGET", "UNIT LABEL", "Activity"],
 "data": [
  ["COc1ccc2cc(C3=CN4CCC3CC4)ccc2c1", "Leishmania amazonensis", "%", 43],
  ["CCOC(=O)c1ccc(C2=CN3CCC2CC3)cc1", "Leishmania amazonensis", "%", 36.3],
  ["OC1(C#Cc2ccc(OCc3ccccc3)cc2)CN2CCC1CC2 (stereo unspecified)", "Leishmania amazonensis", "%", 17],
  ["c1ccc(-c2ccc(CC3CN4CCC3CC4)cc2)cc1 (stereo unspecified)", "Leishmania amazonensis", "%", 30.3],
  ["OC[C@@H]1CC2CCN1C[C@@H]2C#Cc1ccc(-c2ccccc2)cc1 (stereo partly specified)", "Leishmania amazonensis", "%", 36.4]
]}

Turning now to a further record.
Request: Reported Activity for C1=C(c2cc3ccccc3s2)C2CCN1CC2 : what is it?
Response: 28.6

---

Test system: Trypanosoma brucei rhodesiense
Test: Trypanocidal activity against Trypanosoma brucei rhodesiense STIB 900 bloodstream form after 72 hrs by resazurin assay
Format: functional, organism-based
Conditions: STIB 900, 72 h
Listed next: entries and their corresponding pIC50.
In textbook form, pIC50 equals minus log to base ten of the concentration in mol/L.

{"columns": ["COMPOUND", "PROPERTY LABEL", "EXPERIMENTAL RESULT"],
 "data": [
  ["OC[C@H]1CC2CCN1C[C@@H]2C#Cc1cnc2ccccc2c1 (stereo partly drawn)", "pIC50", 4.96],
  ["COc1ccc(C#CC2(O)CN3CCC2CC3)cc1 (stereo not drawn)", "pIC50", 4.74],
  ["OC[C@@H]1CC2CCN1C[C@@H]2C#Cc1cnc2ccccc2c1 (stereo partly drawn)", "pIC50", 5.15],
  ["C(=C1/CN2CCC1CC2)/c1ccc2ccccc2c1", "pIC50", 6.30],
  ["c1ccc2cc(CC3CN4CCC3CC4)ccc2c1 (stereo not drawn)", "pIC50", 5.60],
  ["Cc1ccc(N)cc1C#CC1(O)CN2CCC1CC2 (stereo not drawn)", "pIC50", 4.20],
  ["Nc1ccc(C#CC2(O)CN3CCC2CC3)cn1 (stereo not drawn)", "pIC50", 5.24],
  ["OC1(C#Cc2cccnc2)CN2CCC1CC2 (stereo not drawn)", "pIC50", 3.76],
  ["COc1ccc(COc2ccc(C#CC3(O)CN4CCC3CC4)cc2)cc1OC (stereo not drawn)", "pIC50", 5.47],
  ["CC(C)OC(=O)c1ccc(C2=CN3CCC2CC3)cc1", "pIC50", 5.14]
]}

Request: Reported pIC50 for OC1(C#Cc2ccc3cc[nH]c3c2)CN2CCC1CC2 (stereo not drawn) : what is it?
Response: 4.70

Request: Reported pIC50 for C(=C1/CN2CCC1CC2)/c1ccccc1 : what is it?
Response: 4.80

Request: Reported pIC50 for OC[C@H]1CC2CCN1C[C@@H]2C#Cc1ccc2ccccc2c1 (stereo partly drawn) : what is it?
Response: 5.85

Measured values drawn from ChEMBL document CHEMBL1137637 for this set.
